FYI, the data here is from patent US20210087167A1.

Field: IC50. Provide a value for each of the compounds that follow.

Form field: IC50 recorded for CN(C)c1ccc2c(c1)CN(c1cccc(-c3nncn3C3CC3)n1)C2=O [Compound 34] with ASK1 (Homo sapiens) (enter value)
< 200 nM

GET /values?readout=IC50&system=ASK1 (Homo sapiens)&item= Cn1ccc(-c2ccc3c(c2)CN(c2cccc(-c4nncn4C4CC4)n2)C3=O)n1 [Compound 27]
< 200 nM
